Answer each item with its documented log10 of IC50.
Heads up, the numbers here are log10 of IC50 in nM units.

For Epidermal growth factor receptor (Homo sapiens, UniProt P00533), give log10 of IC50 of the listed molecule: `COc1cc2ncnc(Nc3ccc(F)c(Cl)c3)c2cc1OCCN(C)C`
0.85

Specify the recorded log10 of IC50 for `COc1cc2ncnc(Nc3ccc(F)c(Cl)c3)c2cc1OCCNC(C)(CO)CO` , system: Epidermal growth factor receptor (Homo sapiens, UniProt P00533).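 Note: tyrosine kinase inhibition of EGFR isolated from A431 vulval squamous carcinoma cells, measured in vitro with a TKI assay.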
Sequence (P00533 whole entry): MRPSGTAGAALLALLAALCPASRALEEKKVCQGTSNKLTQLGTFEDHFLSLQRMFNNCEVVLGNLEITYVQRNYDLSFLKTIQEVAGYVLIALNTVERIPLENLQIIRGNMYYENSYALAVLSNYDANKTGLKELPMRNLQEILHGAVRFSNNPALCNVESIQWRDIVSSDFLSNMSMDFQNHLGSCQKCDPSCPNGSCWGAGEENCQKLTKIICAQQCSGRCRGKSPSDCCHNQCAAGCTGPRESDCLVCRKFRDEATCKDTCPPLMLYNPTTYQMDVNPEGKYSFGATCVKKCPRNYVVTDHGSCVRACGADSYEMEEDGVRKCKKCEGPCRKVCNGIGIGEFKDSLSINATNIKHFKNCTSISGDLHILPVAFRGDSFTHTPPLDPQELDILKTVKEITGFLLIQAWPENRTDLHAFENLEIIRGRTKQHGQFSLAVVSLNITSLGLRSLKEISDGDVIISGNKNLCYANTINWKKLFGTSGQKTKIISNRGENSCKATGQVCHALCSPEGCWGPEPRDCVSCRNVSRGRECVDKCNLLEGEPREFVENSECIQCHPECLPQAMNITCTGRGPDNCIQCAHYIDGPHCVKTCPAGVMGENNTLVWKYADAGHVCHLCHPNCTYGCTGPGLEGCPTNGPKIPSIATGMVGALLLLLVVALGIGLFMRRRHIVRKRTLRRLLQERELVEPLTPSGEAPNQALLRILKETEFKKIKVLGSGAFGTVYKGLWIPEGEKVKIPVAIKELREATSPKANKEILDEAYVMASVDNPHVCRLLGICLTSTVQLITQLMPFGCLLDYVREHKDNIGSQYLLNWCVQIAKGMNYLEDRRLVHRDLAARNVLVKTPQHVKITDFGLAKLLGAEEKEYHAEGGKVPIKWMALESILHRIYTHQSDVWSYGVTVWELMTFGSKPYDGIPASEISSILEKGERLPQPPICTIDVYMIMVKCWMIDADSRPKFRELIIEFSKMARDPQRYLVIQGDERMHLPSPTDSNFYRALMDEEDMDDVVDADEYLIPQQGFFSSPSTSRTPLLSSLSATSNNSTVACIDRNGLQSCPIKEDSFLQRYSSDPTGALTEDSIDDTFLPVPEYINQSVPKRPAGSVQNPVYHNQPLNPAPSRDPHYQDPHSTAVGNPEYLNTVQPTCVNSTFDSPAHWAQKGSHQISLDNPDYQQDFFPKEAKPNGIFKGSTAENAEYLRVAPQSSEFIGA
1.84

Give log10 of IC50 only, for CNCC(O)COc1cc2c(Nc3ccc(F)c(Cl)c3)ncnc2cc1OC (stereo not given) , using Epidermal growth factor receptor (Homo sapiens, UniProt P00533) data.
0.70

Identify measured log10 of IC50 obtained with Epidermal growth factor receptor (Homo sapiens, UniProt P00533) for `COc1cc2ncnc(Nc3ccc(F)c(Cl)c3)c2cc1OCCNC(C)C` .
2.49

Report log10 of IC50 from Epidermal growth factor receptor (Homo sapiens, UniProt P00533) testing of `COc1cc2ncnc(Nc3ccc(F)c(Cl)c3)c2cc1OCCNCCN(C)C`
0.30
